Test: qHTS Assay for Lipid Storage Modulators in Drosophila S3 Cells;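 on cell number change: cells counted by Cell Tracker Red CMTPX staining in the red channel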
Conditions: BODIPY lipid droplet fluorescence, 18-24 h, cells fed with added oleic acid; measured here: cell count max response
The whole screen tested about 320,000 compounds, of which about 2,100 (0.66%) were called active. Another 53% or so got no clear call; they are omitted. Only a selection was taken, and actives are over-represented in it overall.
value kind: cell number change (%)
Write the answer as a number in %, unit excluded.

O=c1[nH]c(=O)c2nnc(N/N=C\c3ccc(O)cc3)nc2[nH]1	-0.285

Task item: For the molecule shown here, O=S(=O)(c1ccccc1)N1CCN(C2CCN(Cc3ccccc3)CC2)CC1 , give the reported cell number change.
Reply: 9.59

Task item: For the molecule shown here, COc1cc(NC(=O)c2ccccc2NS(=O)(=O)c2ccc(Cl)s2)cc(OC)c1 , give the reported cell number change.
Reply: -19.8

Task item: For the molecule shown here, CCN1C(=O)[C@H]2[C@@H](c3ccc(-c4ccc5c(c4)OCO5)cc3)N3CCC[C@@]3(C(=O)OC)[C@H]2C1=O , give the reported cell number change.
Reply: -27.4

Task item: For the molecule shown here, CC1(C)CC(=O)C(CC(=O)NC(=O)NCc2ccccc2)=C(O)C1 , give the reported cell number change.
Reply: 9.3

----------
Below is a list of entries, each paired with its recorded cell number change value.
Experiment: qHTS Assay for Lipid Storage Modulators in Drosophila S3 Cells;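 on cell number change: cells counted by Cell Tracker Red CMTPX staining in the red channel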
Conditions: BODIPY lipid droplet fluorescence, 18-24 h, cells fed with added oleic acid; measured here: cell count max response
Hit rate of the full screen: of about 320,000 compounds, about 2,100 (0.66%) were called active. Inconclusive results (about 53%) are left out. What follows is part of a selection rich in actives, with near analogues and random picks from the rest.
Write the answer as a number in %, unit excluded.

COc1ccc(N2C(=O)C3CCCN3C2=S)cc1 (configuration not stated)	13
COc1ccccc1CN1CC(C(=O)NC2CCOCC2)CCC1=O (configuration not stated)	0.697
CC(=O)Nc1ccc(S(=O)(=O)N(C)CC(=O)OCC(=O)N2CCc3ccccc32)cc1	-7.07

Task item: For the compound shown here, COc1ccc(N2C(=O)C3CCCN3C2=O)cc1 (configuration not stated) , give the reported cell number change.
Reply: 13.7

Task item: For the compound shown here, COc1ccc(/C=C(\C#N)C(=O)NCc2ccccc2)cc1 , give the reported cell number change.
Reply: -4.49

Task item: For the compound shown here, COc1cc(CNCCSc2nnnn2C)cc(Br)c1OCc1ccccc1 , give the reported cell number change.
Reply: -4.04

----------
Assay: qHTS Assay for Lipid Storage Modulators in Drosophila S3 Cells
Settings: BODIPY lipid droplet fluorescence, 18-24 h, cells fed with added oleic acid; series mostly up to 46.1 µM
Among all 320,000 compounds or so, about 2,100 (0.66%) were called active. Roughly 53% stayed inconclusive and do not appear here. Calls come from the whole dose curve; as a rule, active = well fitted inhibition curve with a large enough effect in the signal ratio, with a control signal flat (not every such curve was filed as active); inconclusive = small, poorly fitted or top-dose-only effect, or effect the other way, or a change in a side signal; inactive = flat fitted curve, though single readings scatter; the % refers to the signal ratio. What follows is part of a selection rich in actives, with near analogues and random picks from the rest.
Reply using exactly one outcome from t for active, f for inactive

CC(NC(=O)C1CCCN(C(=O)N(C)C)C1)c1ccccc1 (stereo unspecified)	t
Cc1nc(N2CCCCC2)sc1C(=O)c1cccc([N+](=O)[O-])c1	f
CCCCCOC(=O)CCN1C(=O)/C(=C2\SC(=S)N(CCC(=O)OCCCCC)C2=O)SC1=S	f
Cc1cc(NC(=O)c2cccs2)ncc1NC(=O)c1cccc(F)c1	f
CC12CN3CC(C)(CN(C1)C3c1ccccc1F)C2 (stereo unspecified)	f

Task item: Per the assay record, what outcome was assigned to Cc1cccc(/C=C/c2nc3ccccc3c(=O)[nH]2)c1 ?
Reply: f

Task item: Per the assay record, what outcome was assigned to Cc1nnsc1S(=O)c1ccccc1Cl (stereo unspecified) ?
Reply: f

Task item: Per the assay record, what outcome was assigned to O=C(CSc1ccc(-c2ccccn2)nn1)NCc1ccccc1 ?
Reply: f

Task item: Per the assay record, what outcome was assigned to CC1CCC2(CC1)NC(=O)N(CC(=O)Nc1ccc3c(c1)CCC3)C2=O (stereo unspecified) ?
Reply: f

Task item: Per the assay record, what outcome was assigned to COC(=O)[C@H]1C2CCC(C(=O)OC)(CC2)[C@H]1C(=O)OC ?
Reply: t

Task item: Per the assay record, what outcome was assigned to CN(Cc1c(C(=O)N/N=C/c2ccc(O)cc2)nnn1-c1nonc1N)c1ccccc1 ?
Reply: f

Task item: Per the assay record, what outcome was assigned to CN(C)c1ccc(C#Cc2ccc3cc(CCO)oc(=O)c3c2)cc1 ?
Reply: f
